# System: human APOE RNA
# ASSAY NAME: Dose-dependent inhibition of human APOE RNA in differentiated SH-SY5Y cells, free uptake, 5 days (Example 5)
# Format: cell-based
# MEASUREMENT CONDITIONS: 512 nM, 5 days (Table 13)
Strand notation (5' to 3'): a small letter for the sugar, then the base; units joined by * are phosphorothioate-linked, units joined directly phosphodiester-linked; [ ] holds rarer units or linkages, { } end groups; capitals alone tell only the bases. [ms] = mesyl phosphoramidate linkage; e = 2'-O-(2-methoxyethyl) (MOE); k = constrained ethyl (cEt); [5mC] = 5-methylcytosine; d = 2'-deoxy (DNA)
Reported APOE RNA (% UTC) values follow for various substances

Solved entries:
1) Aks^mCeoTeoTesGesGksTdsGdzAdzAdzTds^mCdsTdsTdsTdsAdzTksTksAesAe (kA*e[5mC]eTeT*eG*kG*dT*dG[ms]dA[ms]dA[ms]dT*d[5mC]*dT*dT*dT*dA[ms]kT*kT*eA*eA) [Compound No. 1809635]: 27 % UTC
2) ^mCksTksTksGdzGdzTdzGdzAdzAdzTds^mCdsTdsTdsTdsAdsTdsTksAksAdzAk (antisense k[5mC]*kT*kT*dG[ms]dG[ms]dT[ms]dG[ms]dA[ms]dA[ms]dT*d[5mC]*dT*dT*dT*dA*dT*kT*kA*dA[ms]kA) [Compound No. 1785602]: 30 % UTC
3) TezTeoGeoGksTdsGdzAdzAdzTds^mCdsTdsTdsTdsAdzTksTksAesAesAes^mCe (antisense eT[ms]eTeGkG*dT*dG[ms]dA[ms]dA[ms]dT*d[5mC]*dT*dT*dT*dA[ms]kT*kT*eA*eA*eA*e[5mC]) [Compound No. 1809814]: 53 % UTC

--- query ---
Task item: Can you share its APOE RNA (% UTC)? I mean this substance: Aes^mCeoTeoTesGesGksTdsGdzAdzAdzTds^mCdsTdsTdsTdsAdzTksTksAesAe (eA*e[5mC]eTeT*eG*kG*dT*dG[ms]dA[ms]dA[ms]dT*d[5mC]*dT*dT*dT*dA[ms]kT*kT*eA*eA) [Compound No. 1757576]
Reply: 31 % UTC
